Provenance of the data: ChEMBL document CHEMBL1147095

# Test system: Citrobacter gillenii
# procedure_details: Antimicrobial activity against Citrobacter gillenii CIP 106783 after 18 hrs by […]
# Type: functional
# setup_conditions: CIP 106783, 18 h
Form field: log10 MIC (one value per entry).
measured_metric: log10 MIC (log10 of the value in µg/mL)

- compound: "CO/N=C(\\C(=O)N[C@@H]1C(=O)N2C(C(=O)O)=C(COC(N)=O)CS[C@H]12)c1ccco1"
  value_reported: 0.30
- compound: "CO/N=C(\\C(=O)N[C@@H]1C(=O)N2C(C(=O)[O-])=C(C[n+]3cccc4c3CCC4)CS[C@H]12)c1csc(N)n1"
  value_reported: -1.22
- compound: "CO/N=C(\\C(=O)N[C@@H]1C(=O)N2C(C(=O)[O-])=C(C[N+]3(C)CCCC3)CS[C@H]12)c1csc(N)n1"
  value_reported: -1.22
- compound: "C[C@H]1[C@H](NC(=O)/C(=N\\OC(C)(C)C(=O)O)c2csc(N)n2)C(=O)N1S(=O)(=O)O"
  value_reported: -1.22
- compound: "CO[C@@]1(NC(=O)Cc2cccs2)C(=O)N2C(C(=O)O)=C(COC(N)=O)CS[C@@H]21"
  value_reported: 0.00
- compound: "CO/N=C(\\C(=O)N[C@@H]1C(=O)N2C(C(=O)O)=C(CSc3nc(=O)c(O)nn3C)CS[C@H]12)c1csc(N)n1"
  value_reported: -1.22
- compound: "CO[C@@]1(NC(=O)C(C(=O)O)c2ccc(O)cc2)C(=O)N2C(C(=O)O)=C(CSc3nnnn3C)CO[C@@H]21 (some centres undefined)"
  value_reported: -0.92
- compound: "C[C@@H](O)[C@H]1C(=O)N2C(C(=O)O)=C(SCCNC=N)C[C@H]12 [IMIPENEM ANHYDROUS]"
  value_reported: -1.22
- compound: "CC(C)(O/N=C(\\C(=O)N[C@@H]1C(=O)N2C(C(=O)[O-])=C(C[n+]3ccccc3)CS[C@H]12)c1csc(N)n1)C(=O)O"
  value_reported: -1.22
- compound: "CC1(C)S[C@@H]2[C@H](NC(=O)[C@H](C(=O)O)c3ccsc3)C(=O)N2[C@H]1C(=O)O"
  value_reported: 1.81
- compound: "CC1(C)S[C@@H]2[C@H](NC(=O)[C@H](N)c3ccc(O)cc3)C(=O)N2[C@H]1C(=O)O"
  value_reported: 1.20
- compound: "CC(=O)OCC1=C(C(=O)O)N2C(=O)[C@@H](NC(=O)Cc3cccs3)[C@H]2SC1"
  value_reported: 0.30
- compound: "CO/N=C(\\C(=O)N[C@@H]1C(=O)N2C(C(=O)O)=C(COC(C)=O)CS[C@H]12)c1csc(N)n1"
  value_reported: -1.22
- compound: "CCN1CCN(C(=O)N[C@@H](C(=O)N[C@@H]2C(=O)N3[C@@H]2SC(C)(C)[C@@H]3C(=O)O)c2ccccc2)C(=O)C1=O"
  value_reported: 0.30

====

# system_under_test: Gil1 (Citrobacter gillenii)
# procedure_details: Ratio of kcat to Km of Citrobacter gillenii CIP 106783 Beta-lactamase GIL1 expressed in Escherichia coli DH10B relative to benzyl-penicillin
# Design: unit not given here

- compound: "C[C@@H](O)[C@H]1C(=O)N2C(C(=O)O)=C(SCCNC=N)C[C@H]12 [IMIPENEM ANHYDROUS]"
  Ratio: "< 0.01"
- compound: "CC1(C)S[C@@H]2[C@H](NC(=O)[C@H](C(=O)O)c3ccsc3)C(=O)N2[C@H]1C(=O)O"
  Ratio: 180
- compound: "CC1(C)S[C@@H]2[C@H](NC(=O)Cc3ccccc3)C(=O)N2[C@H]1C(=O)O"
  Ratio: 100
- compound: "CO/N=C(\\C(=O)N[C@@H]1C(=O)N2C(C(=O)O)=C(COC(C)=O)CS[C@H]12)c1csc(N)n1"
  Ratio: 0.2
- compound: "CCN1CCN(C(=O)N[C@@H](C(=O)N[C@@H]2C(=O)N3[C@@H]2SC(C)(C)[C@@H]3C(=O)O)c2ccccc2)C(=O)C1=O"
  Ratio: 61
- compound: "CO/N=C(\\C(=O)N[C@@H]1C(=O)N2C(C(=O)O)=C(COC(N)=O)CS[C@H]12)c1ccco1"
  Ratio: 0.4
- compound: "CC(=O)OCC1=C(C(=O)O)N2C(=O)[C@@H](NC(=O)Cc3cccs3)[C@H]2SC1"
  Ratio: 11
- compound: "CO/N=C(\\C(=O)N[C@@H]1C(=O)N2C(C(=O)[O-])=C(C[N+]3(C)CCCC3)CS[C@H]12)c1csc(N)n1"
  Ratio: 0.5
- compound: "C[C@H]1[C@H](NC(=O)/C(=N\\OC(C)(C)C(=O)O)c2csc(N)n2)C(=O)N1S(=O)(=O)O"
  Ratio: 0.02
- compound: "CO/N=C(\\C(=O)N[C@@H]1C(=O)N2C(C(=O)[O-])=C(C[n+]3cccc4c3CCC4)CS[C@H]12)c1csc(N)n1"
  Ratio: 1.9
- compound: "CC1(C)S[C@@H]2[C@H](NC(=O)[C@H](N)c3ccc(O)cc3)C(=O)N2[C@H]1C(=O)O"
  Ratio: 81
- compound: "CC(C)(O/N=C(\\C(=O)N[C@@H]1C(=O)N2C(C(=O)[O-])=C(C[n+]3ccccc3)CS[C@H]12)c1csc(N)n1)C(=O)O"
  Ratio: 0.01

====

# System: Escherichia coli
# procedure_details: Antimicrobial activity against Escherichia coli DH10B expressing GIL1 after 18 hrs by […]
# Type: functional
measured_metric: MIC (mg/L)

- molecule: "CCN1CCN(C(=O)N[C@@H](C(=O)N[C@@H]2C(=O)N3[C@@H]2SC(C)(C)[C@@H]3C(=O)O)c2ccccc2)C(=O)C1=O"
  system_under_test: "Escherichia coli"
  censoring_sign: "="
  value_reported: 32
- molecule: "CO/N=C(\\C(=O)N[C@@H]1C(=O)N2C(C(=O)[O-])=C(C[N+]3(C)CCCC3)CS[C@H]12)c1csc(N)n1"
  system_under_test: "Escherichia coli"
  censoring_sign: "="
  value_reported: 0.12
- molecule: "CC(=O)OCC1=C(C(=O)O)N2C(=O)[C@@H](NC(=O)Cc3cccs3)[C@H]2SC1"
  system_under_test: "Escherichia coli"
  censoring_sign: "="
  value_reported: 8
- molecule: "CO[C@@]1(NC(=O)C(C(=O)O)c2ccc(O)cc2)C(=O)N2C(C(=O)O)=C(CSc3nnnn3C)CO[C@@H]21 (some centres not stated)"
  system_under_test: "Escherichia coli"
  censoring_sign: "="
  value_reported: 0.25
- molecule: "CO/N=C(\\C(=O)N[C@@H]1C(=O)N2C(C(=O)[O-])=C(C[n+]3cccc4c3CCC4)CS[C@H]12)c1csc(N)n1"
  system_under_test: "Escherichia coli"
  censoring_sign: "="
  value_reported: 0.25
- molecule: "CO[C@@]1(NC(=O)Cc2cccs2)C(=O)N2C(C(=O)O)=C(COC(N)=O)CS[C@@H]21"
  system_under_test: "Escherichia coli"
  censoring_sign: "="
  value_reported: 2
- molecule: "CC1(C)S[C@@H]2[C@H](NC(=O)[C@H](N)c3ccc(O)cc3)C(=O)N2[C@H]1C(=O)O"
  system_under_test: "Escherichia coli"
  censoring_sign: ">"
  value_reported: 512

====

# Tested on: Escherichia coli
# procedure_details: Antimicrobial activity against Escherichia coli DH10B expressing GIL1 after 18 hrs by […]
# Type: functional

- compound: "C[C@H]1[C@H](NC(=O)/C(=N\\OC(C)(C)C(=O)O)c2csc(N)n2)C(=O)N1S(=O)(=O)O [AZTREONAM]"
  units_of_measure: "mg/L"
  censoring_sign: "="
  MIC: 0.12
- compound: "CO/N=C(\\C(=O)N[C@@H]1C(=O)N2C(C(=O)O)=C(COC(N)=O)CS[C@H]12)c1ccco1 [CEFUROXIME]"
  units_of_measure: "mg/L"
  censoring_sign: "="
  MIC: 8
- compound: "CC(C)(O/N=C(\\C(=O)N[C@@H]1C(=O)N2C(C(=O)[O-])=C(C[n+]3ccccc3)CS[C@H]12)c1csc(N)n1)C(=O)O [CEFTAZIDIME]"
  units_of_measure: "mg/L"
  censoring_sign: "="
  MIC: 0.5
- compound: "CC1(C)S[C@@H]2[C@H](NC(=O)[C@H](C(=O)O)c3ccsc3)C(=O)N2[C@H]1C(=O)O [TICARCILLIN]"
  units_of_measure: "mg/L"
  censoring_sign: ">"
  MIC: 512
- compound: "CO/N=C(\\C(=O)N[C@@H]1C(=O)N2C(C(=O)O)=C(COC(C)=O)CS[C@H]12)c1csc(N)n1 [CEFOTAXIME]"
  units_of_measure: "mg/L"
  censoring_sign: "="
  MIC: 1
- compound: "CO/N=C(\\C(=O)N[C@@H]1C(=O)N2C(C(=O)O)=C(CSc3nc(=O)c(O)nn3C)CS[C@H]12)c1csc(N)n1 [CEFTRIAXONE]"
  units_of_measure: "mg/L"
  censoring_sign: "="
  MIC: 0.06
